# methodDescription: cell viability in Huh7 cells, primary screen, cytotoxicity control for HCV replication inhibitor project, CellTiter-Glo luminescence, basal, 48 h (AID 1143);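 also: Huh7 hepatoma cells carrying a hepatitis C replication reporter with no stimulus; test concentration not given here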
# cond: Huh7 HCV replicon, higher = more signal, called active from +8 up or from −8 down
quantityMeasured: z-score
Output spec: single numeric token, no unit.

>>> df
                                 testsmiles  quantitativeresult
0  CCOC(=O)C[C@H]1[C@H](OC(=O)Cc2ccc3c(c2)OCO3)[C@@H](NC(=O)CC(C)C)c2cc(OCCCO)ccc2N1C(=O)Cc1ccc(OC)cc1               -1.04
1  COCCCNC(=O)[C@@]1(Cc2ccccc2N=[N+]=[N-])COC(c2ccc(OCCCO)cc2)=N1               -1.63
2  COc1ccccc1CN1C(=O)c2ccccc2[C@@]2(Cc3ccccc3N(CC(F)(F)F)C2=O)[C@@H]1c1ccc(CO)cc1               0.338

Now consider a different compound.
Endpoint output: z-score of O=C1N(Cc2ccccc2)c2ccccc2[C@@H]2OC(c3ccc(OCCCO)cc3)=N[C@]12Cc1ccccc1 . Value?
-4.55

* * *

# methodDescription: A549 cell viability effects, profiling panel, calcein-AM fluorescence, 48 h, basal (AID 1162); also: test concentration not given here
# cond: higher = more signal
Returns 1 if the recorded z-score is greater than or equal to 0.08, and 0 otherwise.

Examples with answers:
molecule	category
[N-]=[N+]=Nc1ccccc1C[C@]1(C(=O)N2CCOCC2)N=C(c2ccc(OCCCO)cc2)O[C@H]1c1ccccc1	1
CCOc1cc(C(O)C2C=CC3C(=O)N(c4ccccc4)C(=O)C3N2Nc2ccc(C#N)cc2)ccc1O (configuration not stated)	0
Cc1ccc(S[C@]2(C(=O)NCC(F)(F)F)CC(=O)N(C3CCCCC3)[C@@H]2c2ccc(CO)cc2I)cc1	1
C#CCN([C@@H](Cc1ccc(O)cc1)C(=O)OC)[C@@H](/C=C/C1CC1)[C@H](O)Cc1ccccc1	0
CC(C)(C)OC(=O)CC[C@@]1(C(=O)NCc2ccccc2)N=C(c2ccc(OCCCO)cc2)O[C@@H]1c1ccccc1N=[N+]=[N-]	0

Assess whether reported z-score for CN(C)CCCCNC(=O)[C@@H]1C[C@@H]2C(=O)N[C@@H](Cc3ccccc3)C(=O)N2[C@@H]1c1cccc(OCCO)c1 sits at 0.08 or higher.
1

* * *

# methodDescription: E. coli acrAB mutant growth effects, primary screen, E. coli filamentation inducers, strain DRC39, OD650, 24 h (AID 1178);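 also: growth measured as culture turbidity by optical density at 650 nm; test concentration not given here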
# cond: higher = more signal, called active from +8 up or from −8 down
The source made the active and inactive calls.
Known z-score of a selection of compounds

See these solved cases before continuing.
compound	result
O=C1N(Cc2ccccc2)c2ccccc2[C@@H]2OC(c3ccc(OCCCO)cc3)=N[C@]12Cc1ccccc1	1.29 (inactive)
C[C@H]1NC(=O)[C@@]23C(=O)N[C@@H](Cc4ccccc4)C2[C@H](C)[C@@]2(C)O[C@H]2C3/C=C/C/C=C\CNC(=O)[C@H](Cc2ccccc2)NC1=O (stereo partly specified)	0.513 (inactive)
O=C1OCC=C[C@H]2OC34C=CCN(c5ccc(Cl)cc5)C(=O)[C@H]3N(CCO)C(=O)[C@@H]4[C@@H]12 (stereo partly specified)	0.973 (inactive)
COC(=O)[C@@]1(Cc2ccc(OC)cc2)[C@H]2c3cc(C(=O)N(C)C)n(C[C@H](O)CO)c3C[C@H]2CN1C(=O)c1ccccc1	-1.46 (inactive)

Endpoint output: z-score of CN1C(=O)C2C=CC(C(O)COCc3ccccc3)N(N(c3ccccc3)c3ccccc3)C2C1=O (stereo unspecified) . Value?
0.202 (inactive)

Endpoint output: z-score of COCCOC(=O)N1C(=O)[C@@]2(c3cc(C#CCC(C(=O)OC)C(=O)OC)ccc31)[C@H](C(=O)N1CCc3cc(OC)c(OC)cc3C1)[C@H]1C(=O)O[C@H](c3ccccc3)[C@H](c3ccccc3)N1[C@@H]2c1ccc(OCCO)cc1 . Value?
-0.132 (inactive)
